test system: SW-620 colon; assay: NCI-60 one-dose screen, 48 h; details: 10 µM unless noted
The panel holds about 83,000 compounds, 20% with a hit somewhere; the sample as a whole holds those more often. Active and inactive are the calls of the source. The calls were made as follows: active = growth percent below 10; inactive = the rest.
Outcome codes: t (active), f (inactive)

In [3]: df
Out[3]:
                                   molecule  class
0  C=C1C(=O)O[C@H]2[C@H]1CC/C(CNC(=O)c1cc3cc(OC)ccc3[nH]1)=C\CC[C@@]1(C)O[C@@H]21      t
1  C#Cc1cccc(Nc2ncnc3cc4c(cc23)OCCOCCOCCO4)c1      f
2  Cc1ccccc1N1C(c2ccccc2)=NNC12C=CC(=O)C=C2Cl (centres undefined)      f
3  COC(=O)[C@@H](C)CNS(=O)(=O)N(c1cc(C(F)(F)F)cc(C(F)(F)F)c1)C1CCN(Cc2ccc(F)cc2)CC1      f
4  Cc1cc(C(O)CN(C)C)cc2c1ccc1cc(C(C)C)ccc12 (centres undefined)      t
5  CCCS(=O)(=O)Nc1ccc(F)c(C(=O)c2c[nH]c3ncc(-c4ccc(Cl)cc4)cc23)c1F      f
6  CCN(CC)C(=O)C[N+](C)(C)CCOC(c1ccccc1)c1ccccc1      f
7  C[C@@H](Oc1cc(-n2cnc3ccc(CN4CCN(C)CC4)cc32)sc1C(N)=O)c1ccccc1C(F)(F)F      f
8  O=C(c1ccc(F)c(F)c1Nc1ccc(I)cc1F)N1CC(O)([C@@H]2CCCCN2)C1      f

---

system: HS 578T breast; test: NCI-60 one-dose screen, 48 h; conditions: 10 µM
Compounds without any hit were thinned out: in the full panel of roughly 83,000, 20% have a hit. Active and inactive are the calls of the source. The calls were made as follows: active = growth percent below 10; inactive = the rest.
Classes used: TRUE = active, FALSE = inactive

>>> df
                    structure_smiles_string  class
0  O=C(Nc1cccc([N+](=O)[O-])c1)c1ccc(Cl)c(Cl)c1  FALSE
1  CC/C=C\C[C@H]1C/C=C2/C(=O)C=C[C@@H]2C/C=C\CCCC(=O)O1  FALSE
2                        Ic1ccccc1-c1ccccc1  FALSE
3  Clc1nc(Cl)c2ncn(C/C=C\Cn3cnc4c(Cl)nc(Cl)nc43)c2n1   TRUE
4  CC[n+]1c(/C=C/C=C2\N(C)c3ccccc3C2(C)C)sc2ccccc21  FALSE
5  CCOC(=O)C1=C(C)N=C2Sc3cccc(OC)c3N2[C@H]1c1ccccn1  FALSE

---

tested on: SK-MEL-2 melanoma; test: NCI-60 one-dose screen, 48 h (100 = growth as untreated, 0 = no growth, -100 = all killed); settings: 10 µM
This is part of a sample that, as a whole, favours compounds with a hit. Of some 83,000 tested, about 20% had one in any assay.
Property: growth (%)

>>> print(df.to_string())
                                    molecule  property  meas_value
 0  COc1ccc2c(CCCCC(c3ccccc3)c3ccccc3)c3[n+](cc2c1OC)CCc1cc2c(cc1-3)OCO2    growth       -70.4
 1  O=c1nc2c(-c3nc4ccccc4s3)n[nH]n2c2sc3c(c12)CCCC3    growth         112
 2  COc1cc2c(cc1OCCCCN1CCN(CC(=O)Nc3ccc(Cl)cc3C(=O)c3ccccc3Cl)CC1)N=CC1CCCN1C2=O (configuration not stated)    growth       -67.5
 3  CC(C)C1CCC(C)C(C2(C#N)C(N)=NC(N)=C2C#N)C1=O (configuration not stated)    growth         109
 4  CCCCCCCC(=O)SCC/C=C/[C@@H]1CC(=O)NCc2cc(ccn2)C2=N[C@@](C)(CS2)C(=O)N[C@@H](C(C)C)C(=O)O1    growth        -2.2
 5  Nc1nc(=S)c2ncn(C3OC(COC(=O)c4ccc(Cl)cc4)C(OC(=O)c4ccc(Cl)cc4)C3OC(=O)c3ccc(Cl)cc3)c2[nH]1 (configuration not stated)    growth        94.5
 6  COC(=O)[C@]12CC[C@@H](C)[C@H](C)[C@@H]1C1=CC[C@@H]3[C@@]4(C)C(C#N)=CC(C)=C4CC[C@@]3(C)[C@]1(C)CC2    growth        82.9
 7  CC12O[C@H](C[C@@H](OC(=O)CCC(=O)O)[C@H]1O)n1c3ccccc3c3c4c(c5c6ccccc6n2c5c31)C(=O)NC4=O    growth        23.3
 8  CCN1CCN(c2cc(C)nc(N(CCCNc3ccnc4cc(Cl)ccc34)Cc3cccs3)n2)CC1    growth       -37.8
 9                   CCCCCCCCCCCC[n+]1ccccc1    growth       -30.4
10  [2H]C1([2H])[C@H](C)O[C@H](C)C([2H])([2H])N1c1ccc(NC(=O)c2cccc(-c3ccc(OC(F)(F)F)cc3)c2C)cn1    growth        56.1
11  COc1cc2c(cc1OCCCCCN1CCN(c3ncnc4ccccc34)CC1)N=CC1CCCN1C2=O (configuration not stated)    growth        1.29
12  CC(C)[C@@H](C)/C=C/[C@@H](C)[C@H]1CCC2=C3C=CC4=CC(=O)CC[C@]4(C)[C@H]3CC[C@@]21C    growth         101
13  O=C(N/N=C/c1ccc(Cl)cc1)c1cc(-c2cc3ccccc3o2)nn1-c1ccccc1    growth        91.2
14                    CSc1nc2ncnc(SC)c2[nH]1    growth        99.4
15  CCCCCCCC(=O)SCC/C=C/[C@@H]1CC(=O)NCc2cccc(n2)C2=N[C@@](C)(CS2)C(=O)N[C@@H](C(C)C)C(=O)O1    growth       -1.86
16  O=C(c1ccccc1)C(c1ccccc1)N1CCOCC1 (configuration not stated)    growth        91.1

---

Parameter: growth. Scope: all listed entries.
tested on: IGROV1 ovarian; experiment: NCI-60 one-dose screen, 48 h (100 = growth as untreated, 0 = no growth, -100 = all killed); conditions: 10 µM unless noted
About 83,000 compounds went through this panel and 20% of them were active in at least one assay; those are over-represented in the sample as a whole. Activity calls are given as the source filed them. How the source made its calls: active means growth percent below 10; inactive means the rest.
Property: growth

>>> df
                                    molecule  subject_of_test  property        meas_value
 0  CCCCN1CCCC[C@@H]1C(=O)N[C@H](C(=O)N(C)[C@H](CCc1nc(C(=O)N[C@@H](Cc2ccccc2)C[C@H](C)C(=O)OC)cs1)C(C)C)C(C)C   IGROV1 ovarian    growth  50.3% (inactive)
 1  CCc1nc2cc(/C=C/C(=O)NO)c(F)cc2c(=O)n1CCc1ccccc1   IGROV1 ovarian    growth  26.1% (inactive)
 2  NC1=Nc2cc(OCCCN3Cc4ccccc4C3)c(OCC3CC3)cc2C12CCCC2   IGROV1 ovarian    growth  71.7% (inactive)
 3  Cc1cc(C)n(CC(=O)Nc2ccc(-c3nc4ccccc4s3)cc2)n1   IGROV1 ovarian    growth  97.4% (inactive)
 4  ClCc1ccc(-c2ccc(Cn3cnc4nc(Cl)nc(Cl)c43)cc2)cc1   IGROV1 ovarian    growth    21% (inactive)
 5  O=C(Nc1cn[nH]c1-c1nc2ccc(CN3CCOCC3)cc2[nH]1)NC1CC1   IGROV1 ovarian    growth    9.49% (active)
 6  O=C(O)c1ccc(Nc2ncc3c(n2)-c2ccc(Cl)cc2C(c2c(F)cccc2F)=NC3)cc1   IGROV1 ovarian    growth  41.8% (inactive)
 7  CC1(C=O)NC(=O)NC1=O (configuration not stated)   IGROV1 ovarian    growth   111% (inactive)
 8  C[C@@]1(C(=O)Nc2ccc(F)nc2)CCCN1c1nc(Nc2cc(C3CC3)[nH]n2)c2cccn2n1   IGROV1 ovarian    growth    1.38% (active)
 9  CN1CCN(CC(=O)Nc2ccc(-c3nc4ccccc4s3)cc2)CC1   IGROV1 ovarian    growth  80.6% (inactive)
10  CCNC(=O)Nc1nc2ccc(Oc3ccnc(C(=O)NC)c3)cc2s1   IGROV1 ovarian    growth    90% (inactive)
11  O=C1NC(=O)/C(=C/c2ccc3nccc(-c4ccncc4)c3c2)S1   IGROV1 ovarian    growth   -60.1% (active)

---

test system: NCI/ADR-RES ovarian; assay: NCI-60 one-dose screen, 48 h; details: 10 µM unless noted
Compounds without any hit were thinned out: in the full panel of roughly 83,000, 20% have a hit. Active and inactive are the calls of the source. How the source made its calls: active means growth percent below 10; inactive means the rest.
Outcome codes: active, inactive

In [3]: df
Out[3]:
                                    molecule     class
 0  Cc1cn(-c2cc(NC(=O)c3ccc(C)c(Nc4nccc(-c5cccnc5)n4)c3)cc(C(F)(F)F)c2)cn1  inactive
 1  O=C(c1ccccc1)C(c1ccccc1)N1CCOCC1 (centres undefined)  inactive
 2  CNC(=O)c1cc(Oc2ccc(NC(=O)Nc3cc(C(C)(C)C)nn3-c3ccc4ncccc4c3)c(F)c2)ccn1    active
 3  CC/C(=C(/c1ccc(Cl)cc1)c1ccc(OCCN2CCCCC2)cc1)c1ccc(Cl)cc1  inactive
 4  CCN1CCN(Cc2ccc(-c3cc4c(N[C@H](C)c5ccccc5)ncnc4[nH]3)cc2)CC1  inactive
 5  O=C1/C(=C\c2cccc(OCCCCCOc3ccc(Cl)cc3)c2)N=C2SCCCN12  inactive
 6  COc1cc(Nc2ncc3c(n2)-c2ccc(Cl)cc2C(c2c(F)cccc2OC)=NC3)ccc1C(=O)O  inactive
 7  Cc1cc(O)cc(-c2c(-c3ccnc(-c4cccnc4)c3)cnn2C)c1  inactive
 8  COc1ccc(Nc2ncccc2NC(=O)c2cn(Cc3cccc(Oc4ccccc4)c3)nn2)cc1  inactive
 9  Cc1ccc2oc(=O)cc(-c3cc(-c4cc5ccccc5oc4=O)nc(N)c3C#N)c2c1  inactive
10  CCN(CC)CCNc1ccc(N=Nc2cnc3ccccc3c2)c2ccccc12    active
11  O=C(N/N=C/c1ccc(Cl)cc1)c1cc(-c2cc3ccccc3o2)nn1-c1ccccc1  inactive
12  COCC(=O)NC/C=C/c1ccc2ncnc(Nc3ccc(Oc4ccc(C)nc4)c(C)c3)c2c1  inactive
13  C=CC(=O)Nc1cccc(Oc2nc(Nc3ccc(N4CCN(C)CC4)cc3)nc3ccsc23)c1    active
14   O=c1[nH]ccc2c(S(=O)(=O)N3CCCNCC3)cccc12  inactive
15  Cc1cc(N2CCCC2)nc(N(CCCNc2ccnc3cc(Cl)ccc23)Cc2ccc3c(c2)OCO3)n1    active
16  Cc1ccc(Nc2nccc(N(C)c3ccc4c(C)n(C)nc4c3)n2)cc1S(N)(=O)=O  inactive
17  CCCS(=O)(=O)Nc1ccc(F)c(C(=O)c2c[nH]c3ncc(-c4ccc(Cl)cc4)cc23)c1F  inactive
18  N#Cc1c(NC(=O)c2ccco2)[n+]([O-])c2cc(F)c(F)cc2[n+]1[O-]  inactive
